Source listed as patent US20150166606A1.

Listing: Human Kallikrein IC50 of selected binders
TESTED TARGET: Activated human plasma kallikrein (Enzyme Research Laboratories, HPKa 1303) (human, UniProt P03952 20-638)
Sequence (P03952 20-638 limits assumed): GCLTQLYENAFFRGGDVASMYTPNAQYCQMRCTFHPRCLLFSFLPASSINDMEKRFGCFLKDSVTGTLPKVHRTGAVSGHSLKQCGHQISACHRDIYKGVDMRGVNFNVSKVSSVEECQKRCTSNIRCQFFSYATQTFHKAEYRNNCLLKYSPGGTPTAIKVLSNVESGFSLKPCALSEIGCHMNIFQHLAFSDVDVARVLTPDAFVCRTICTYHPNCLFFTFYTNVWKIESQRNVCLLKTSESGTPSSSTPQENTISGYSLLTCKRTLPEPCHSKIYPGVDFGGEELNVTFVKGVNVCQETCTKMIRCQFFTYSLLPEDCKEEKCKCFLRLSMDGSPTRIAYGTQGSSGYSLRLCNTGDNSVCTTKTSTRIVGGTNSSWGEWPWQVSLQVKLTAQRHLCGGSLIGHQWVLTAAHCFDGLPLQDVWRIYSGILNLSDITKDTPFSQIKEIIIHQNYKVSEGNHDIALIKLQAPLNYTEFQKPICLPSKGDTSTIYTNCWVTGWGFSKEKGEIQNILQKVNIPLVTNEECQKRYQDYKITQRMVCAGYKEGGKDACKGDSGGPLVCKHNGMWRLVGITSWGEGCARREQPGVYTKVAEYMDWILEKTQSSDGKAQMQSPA
TEST NAME: cell-based or functional assay
Bridge positions count the residues as written; N and C are the ends. Square brackets hold non-standard residues; d marks the D form. Ends that are not written are not given here. mXylyl = xylyl linker from dibromoxylene joining the two cysteines; des‑NH2 = missing amino-terminal amine group; Phg = N[C@H](C(=O)O)c1ccccc1; NMeS = CN[C@@H](CO)C(=O)O
Return type: number; implicit unit nM.

Examples from the recorded data:
* {des‑NH2}-CESICRV-NH2 (linker 1-5 via mXylyl; not fully specified (residue 1); printed as [mXylyl(1,5)](des-NH2)C-ESICRV-NH2) [R2051] | 12.9
* MCE[NMeS]ICRV-NH2 (linker 2-6 via mXylyl) [R2019] | 52.3
* MCNYWSPWTECSA-NH2 (cysteine pairing not given here) [R2104] | 3.4

Data request: Look at this binder and give its reported Human Kallikrein IC50. Ac-CASICRV-NH2 (linker 1-5 via mXylyl; not fully specified (residue 2); printed as [mXylyl(1,5)]Ac-C-a-SICRV-NH2) [R2047]
Data returned: 32.3

Data request: Look at this binder and give its reported Human Kallikrein IC50. MCES[Phg]CRV-NH2 (linker 2-6 via mXylyl) [R2012]
Data returned: 8.3
